Values were extracted from ChEMBL document CHEMBL1201862.

Tested on: Hs-578T
protocol: NCI tumour cell line growth inhibition, 48 h
Activity calls are given as the source filed them. No stated cut-off is given here; in the data, active = GI50 up to about 1.1 µM and inactive = higher.

molecule	GI50
N#CC1=C(S)N(C2OC(CO)C(O)C(O)C2O)C(c2ccccc2)=CC1c1cccs1 (stereo unspecified)	23.4 µM (inactive)
CCC1(CC)C(=O)N(C(=O)c2cc(OC)c(OC)c(OC)c2)N(C(=O)c2cc(OC)c(OC)c(OC)c2)C1=O	> 50 µM (inactive)
O=C(/C=C/c1ccc(O)cc1)c1cc(O)cc(O)c1	29.9 µM (inactive)
CCSC1=N/C(=C\c2ccco2)C(Nc2ccc(C)cc2)=N1	> 100 µM (inactive)
O=C1CSC(=O)/C1=C\NNc1nc2ccccc2o1	52.7 µM (inactive)
CC1=C(C(=O)NNC(=O)c2ccccc2)CC(C(=O)NNC(=O)c2ccccc2)=C(C)N1	> 100 µM (inactive)
O=C(CCC1CCCCN1)Nc1ccc2c(c1)C(=O)c1ccc(NC(=O)CCN3CCCCC3)cc1C2=O (stereo unspecified)	> 10 µM (inactive)
Nc1ncc(N)c(NCC2(CO)CC(CCc3ccccc3)C2)n1 (stereo unspecified)	9.55 µM (inactive)
CC1=NN(C(=O)c2ccncc2)C(=O)C1	> 100 µM (inactive)
O=c1[nH][nH]c(=O)n1Cc1ccccc1	> 100 µM (inactive)
CCN(CC)CCC(=O)c1ccc(Sc2ccc(F)cc2)cc1	15.8 µM (inactive)

----------
System: SF-539
protocol: NCI tumour cell line growth inhibition, 48 h
Activity calls are given as the source filed them. Cut-off read from the data, not from the text of the source: active = GI50 up to about 1.1 µM and inactive = higher.
Labels: YES (active), NO (inactive)

compound	group
COc1cccc2c1C(=O)c1c(O)c3c(c(O)c1C2=O)C[C@@](O)(/C(C)=N\O)C[C@@H]3OC1CC(N)C(O)C(C)O1 (stereo not given in full)	YES
C[n+]1c(-c2ccc(NC(=O)c3ccc(C(=O)Nc4ccc(-c5cn6ccccc6[n+]5C)cc4)cc3)cc2)cn2ccccc21	NO
COc1cc2cccc(/N=C/c3c(Br)ccc(OC)c3OC(C)C)c2cc1OC	NO
Nc1c(S(=O)(=O)O)cc(Nc2cccc(S(N)(=O)=O)c2)c2c1C(=O)c1ccccc1C2=O	NO
O=C(NNc1ccccc1)/C(=C/c1ccc2c(c1)OCO2)NC(=O)c1ccccc1	NO

----------
Measured GI50 of individual entries
System: BT-549
protocol: NCI tumour cell line growth inhibition, 48 h
Active and inactive are the calls of the source. Rule as the data show it: active = GI50 up to about 1.1 µM and inactive = higher.

compound	GI50
COC(=O)C1=C(O)C(C(=O)OC)[C@]2(O)[C@@H](C(=O)OC)[C@H]1C[C@@H](c1ccccc1)[C@@H]2C(=O)OC (some centres undefined)	15.8 µM (inactive)
CCOC(=O)CC1Nc2ccccc2C12CCc1c([nH]c3ccccc13)C2C(=O)OCC (centres undefined)	> 100 µM (inactive)
COc1ccc(-c2c(N)n(-c3cc(OC)cc(OC)c3)c(=O)c3cc([N+](=O)[O-])ccc23)cc1	19.2 µM (inactive)
O=C(NC(Cc1c[nH]c2ccccc12)C(=O)O)/C(=C/c1ccccc1)NC(=O)c1ccccc1 (centres undefined)	43.8 µM (inactive)

----------
Measured GI50 of individual entries
Tested on: BT-549
protocol: NCI tumour cell line growth inhibition, 48 h
The source made the active and inactive calls. Cut-off read from the data, not from the text of the source: active = GI50 up to about 1.1 µM and inactive = higher.

compound	GI50
COc1ccc(C2CCc3nc4nc(N)nc(N)c4cc3C2)cc1 (configuration not stated)	25.5 µM (inactive)
CCOc1cc(NC(C)=O)ccc1C(=O)NN1C(=O)C(Cl)C1c1ccco1 (configuration not stated)	13.5 µM (inactive)
Cc1cccc(C2ON=C(c3ccccc3)N2C23CC4CC(CC(C4)C2)C3)c1 (configuration not stated)	> 10 µM (inactive)
CC1=NC(=Cc2cc(Br)cc(Br)c2)C(=O)N1n1c(-c2ccccc2)nc2ccccc2c1=O	> 100 µM (inactive)
C[As+](C)(c1ccc(Br)c([N+](=O)[O-])c1)c1ccc(Br)c([N+](=O)[O-])c1	> 100 µM (inactive)
Cc1cc2nc(N3C(=O)/C(=C/c4ccc(N(C)C)cc4)N=C3c3ccccc3)sc2cc1C	44.5 µM (inactive)
O=[N+]([O-])/C(Cl)=C/C(=C1/Nc2ccccc2O1)[N+](=O)[O-]	16.3 µM (inactive)
Cc1ccc(SC2C(=O)C3CC(OCc4ccccc4)C2(C)C3(C)C)cc1 (configuration not stated)	> 100 µM (inactive)
CN(C)c1c(C2CC(O)C(CO)O2)c(=O)c1=O (configuration not stated)	> 100 µM (inactive)
O=C(CSc1ncccn1)N/N=C/c1ccccc1OCc1ccccc1	25 µM (inactive)
Cc1nnc2ccccc2c1O	> 100 µM (inactive)
O=C(O)c1cc2ccccc2c(/N=N/c2ccccc2)c1O	20.8 µM (inactive)
O=Cc1cc(C(=O)OCc2ccccc2)n(S(=O)(=O)c2ccccc2)c1	16 µM (inactive)
Cc1c(-c2ccc(O)cc2)n(CCCCCCNCCOC(=O)NCCCc2ccc(N(CCCl)CCCl)cc2)c2ccc(O)cc12	12.4 µM (inactive)
CN(C)N1C(=O)c2ccccc2NC1c1ccccc1 (configuration not stated)	> 100 µM (inactive)
CC1(C)c2ccccc2C(=O)C12CCC(=O)CC2	> 100 µM (inactive)
CCOC(=O)c1c(N2CCOCC2)[nH]c(=O)c(C(c2c(O)c(C(=O)OCC)c(N3CCOCC3)[nH]c2=O)C(C)C)c1O	> 100 µM (inactive)
CCNC(=S)Nc1c(C#N)c2n(c1C(=O)OCC)CCCCC2	30.9 µM (inactive)
Clc1ccccc1-c1nnc2c(-c3ccccc3)nc3ccccc3n12	> 100 µM (inactive)
CCCCCCSc1nc(COC(=O)NC)c(COC(=O)NC)n1C	> 100 µM (inactive)
CCOC(=O)C[C@@H]1C2(C=C[C@@]13CO3)OCC(C)(C)CO2	> 100 µM (inactive)
COc1ccc(Nc2nn3c(=O)c4c(C)c(C)sc4nc3s2)cc1	> 100 µM (inactive)

----------
Test system: NCI-H226
protocol: NCI tumour cell line growth inhibition, 48 h
Activity calls are given as the source filed them. No stated cut-off is given here; in the data, active = GI50 up to about 1.1 µM and inactive = higher.
Labels: active, inactive

molecule	group
Clc1ccc(OCc2nnc(CCCCCCCCc3nnc(COc4ccc(Cl)cc4Cl)n3Nc3ccccc3)n2Nc2ccccc2)c(Cl)c1	inactive
Cc1ccc2oc(=O)c(C(=O)Nc3nc(C45CC6CC(CC(C6)C4)C5)cs3)cc2c1	inactive
COC(=O)N1[C@H]2Cc3c(OC)c(C)c(OC)c(OC)c3[C@@H]1/C(=C\c1cc(OC)c(OC)c(C)c1OC)N(Cc1ccccc1)C2=O	active
CC(C)N(C(C)C)S(=O)(=O)C[C@]12CC[C@H](CC13OCC(CS(=O)(=O)c1ccccc1)O3)C2(C)C (some centres undefined)	inactive

----------
Tested on: OVCAR-5
protocol: NCI tumour cell line growth inhibition, 48 h
Calls of active or inactive are those of the source. Rule as the data show it: active = GI50 up to about 1.1 µM and inactive = higher. Where a SMILES comes first, the peptide text is derived from it. [ ]: non-standard residue; d: D form. The star is where a group is joined. Bn2Val = CC(C)[C@@H](C(=O)*)N(Cc1ccccc1)Cc1ccccc1; NH(4-F-benzyl) = Fc1ccc(CN*)cc1; NMeV = CN[C@H](C(=O)O)C(C)C; dNMeA = CN[C@H](C)C(=O)O
Labels: active, inactive

compound	group
O=C(NCc1ccc(Cl)cc1)c1cc2sccc2nc1C(F)(F)F	inactive
COC(=O)C1=COC2OC3/C(=C\c4ccc(O)c(OC)c4)C(=O)OC34C=CC1C24 (centres undefined)	inactive
CC(=O)NC(Cc1c[nH]c2ccccc12)C(=O)O (centres undefined)	inactive
CC1CCC(O)C(C(O)CC2CC(=O)N(C)C(=O)C2)C1 (centres undefined)	inactive
Cc1ccc(S(=O)(=O)c2ccc([N+](=O)[O-])o2)cc1	inactive
CC(C)[C@H](NC(=O)[C@H](C(C)C)N(Cc1ccccc1)Cc1ccccc1)C(=O)N(C)[C@H](C(=O)N1CCC[C@H]1C(=O)N(C)[C@H](C)C(=O)NCc1ccc(F)cc1)C(C)C (Bn2Val-V[NMeV]P[dNMeA]-{NH(4-F-benzyl)})	inactive
COc1cc(C)cc2c1C(=O)C(NC(C)=O)=CC2=O	inactive
Cc1cc2nc(N3C(=O)/C(=C/c4ccc(N(C)C)cc4)N=C3c3ccccc3)sc2cc1C	inactive
O=[N+]([O-])C(=C(N1CCOCC1)N1CCOCC1)/C(Cl)=C(\Cl)[N+](=O)[O-]	inactive
O=C(c1ccccc1)N1CCc2c([nH]c3ccccc23)C1	inactive
CCN1CCC(O)(c2ccc(Oc3ccccc3)cc2)C(C(=O)c2ccc(Oc3ccccc3)cc2)C1 (centres undefined)	inactive
CC(C)[C@]12O[C@H]1[C@@H]1O[C@@]13[C@@]1(C)CCC4=C(COC4=O)[C@@H]1C[C@@H]1O[C@@]13C2=O [TRIPTONIDE]	active
COc1ccc(-c2nnc3n(Cc4ccccc4)c4ccccc4n3c2=O)cc1	inactive
CC(C)(C)C1=CC(=N/N=c2\scc(-c3ccccc3)n2-c2ccccc2)C=C(C(C)(C)C)C1=O	inactive
BrC1=CC=C2NC=CC3=CC=NC1C32 (centres undefined)	inactive
CC1(C)CC2C(/C1=N/O)C1(C)CCCC2(C)C1O (centres undefined)	inactive
O=C1c2c(Cl)c(Cl)c(Cl)c(Cl)c2C(=O)N1CCN(c1c(Cl)ssc1=O)c1c(Cl)ssc1=O	inactive
CCOn1c(C2(CC3CCN(C(=O)c4ccccc4)CC3)OCCO2)cc2ccccc21	inactive
CN(C)c1ccc([S+]([O-])Nc2ccccc2)cc1 (centres undefined)	inactive
